Test Protocol: Caco-2 permeability assay
Format: in vitro ADME, human
Stated Conditions: human, Caco-2; test concentration 1.0E−06 M
Reported Property: efflux ratio at 1 µM

(A) Cc1c[nH]c2cccc(OC[C@H](O)CNC(C)(C)C)c12 [CD3-T1]
(B) CC(C)NC[C@@H](O)COc1cccc2[nH]cc(CC(=O)N(C)C)c12 [CD3-T3]
Query: Could you kindly indicate whether A or B has the higher efflux ratio at 1 µM value? Output the label that corresponds to your choice.
Result: B
(B: 32, A: 0.325)

----------
Test Protocol: Caco-2 permeability assay
Format: in vitro ADME, human
Stated Conditions: human, Caco-2, pH 7.4; test concentration 1.0E−06 M
Reported Property: Papp A→B (×10⁻⁶ cm/s)

(1) CC(C)NC[C@@H](O)COc1cccc2[nH]cc(CC(=O)N(C)C)c12 [CD3-T3]
(2) Cc1c[nH]c2cccc(OC[C@H](O)CNC(C)(C)C)c12 [CD3-T1]
(3) CC(C)(C)NC[C@@H](O)COc1cccc2[nH]cc(CC(N)=O)c12 [CD3-403]
Query: Reorder the list above by recorded Papp A→B in ascending order. Answer by listing the labels in the order asked for.
Result: 1, 3, 2
(1: 0.1 ×10⁻⁶ cm/s, 3: 0.4 ×10⁻⁶ cm/s, 2: 54.7 ×10⁻⁶ cm/s)
